B1: FAM189A2 (parent)
chain: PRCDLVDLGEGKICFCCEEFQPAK

# Variants of: B1
# assay details: protein stability index of a GFP-peptide fusion (GPS, HEK-293T) (PSI 1-6); higher = more stable;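 also: lentivirally expressed fusions sorted by FACS into six bins by GFP to DsRed ratio, PSI derived from sequencing read proportions per bin multiplied by bin number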
# test settings: c terminus: a fixed tail appended
reported metric: protein stability index
// keep it numeric: no unit symbol after the value

Exam item: Please give the measured protein stability index for this variant: PRCDLVDLGEGKICFCCEFFQPAK [E19F]
Marked response: 1.78

Exam item: For PRCDLVDLGEGKICFCCEEFSPAK [Q21S] , what is its reported protein stability index?
Marked response: 2.65

Exam item: Data request, read-out protein stability index, for PRCDLVDLGEGWICFCCEEFQPAK [K12W]
Marked response: 2.32

Exam item: protein stability index lookup needed for PRCDLVDLGEGKVCFCCEEFQPAK [I13V] , thanks.
Marked response: 2.86

Exam item: Consider the variant shown here: PRCDLVDLGEGKILFCCEEFQPAK [C14L] What is its recorded protein stability index?
Marked response: 3.15

Exam item: For PRCDLVDLGEGKICFCCESFQPAK [E19S] , what is its reported protein stability index?
Marked response: 2.26

Exam item: Which protein stability index value belongs to PRCDLVDLGEGKIIFCCEEFQPAK [C14I] ?
Marked response: 2.39

Exam item: Quick check: protein stability index of PRCDLVDLGEGKICFPCEEFQPAK [C16P] ?
Marked response: 4.24

Exam item: # query: protein stability index of entry PRCDLVDLGEGKICWCCEEFQPAK [F15W]
Marked response: 3.04

Exam item: # protein stability index lookup, item PRLDLVDLGEGKICFCCEEFQPAK [C3L]
Marked response: 2.97

Exam item: State the recorded protein stability index for this entry: PRCDLQDLGEGKICFCCEEFQPAK [V6Q]
Marked response: 3.92

Exam item: I would be grateful if you could share the reported protein stability index for PDCDLVDLGEGKICFCCEEFQPAK [R2D] .
Marked response: 3.72

Exam item: // query protein stability index value for entry PRCDLVDLGEGKICFCDEEFQPAK [C17D]
Marked response: 4.29

Exam item: Find the recorded protein stability index belonging to PRCDLVDLGEGKICFCCEEFQHAK [P22H] and report it.
Marked response: 3.13

Exam item: Reported protein stability index, variant PRCDLVDLGEGKICSCCEEFQPAK [F15S] : ____
Marked response: 4.47

Exam item: Sample PRCDLVDLGKGKICFCCEEFQPAK [E10K] — what was its protein stability index?
Marked response: 2.82

Exam item: Endpoint output: protein stability index of PRCDLVDLGEGKICFCCEEFQRAK [P22R] . Value?
Marked response: 2.51

Exam item: What measured protein stability index goes with PRCDLVDLGEGKICFCCEENQPAK [F20N] ?
Marked response: 3.86

Exam item: Could you tell me which protein stability index is on file for PRCRLVDLGEGKICFCCEEFQPAK [D4R] ?
Marked response: 3.56

Exam item: Given PRCDLVDLGFGKICFCCEEFQPAK [E10F] , state its recorded protein stability index.
Marked response: 2.35

Exam item: Any idea what protein stability index was measured for PRCDLVDLGWGKICFCCEEFQPAK [E10W] ?
Marked response: 1.85

Exam item: Param item = PRCDLVDLVEGKICFCCEEFQPAK [G9V] ; retrieve measured protein stability index.
Marked response: 2.52
